study-system: Neuropeptide S receptor (Homo sapiens)
protocol-notes: Confirmation Concentration-Response Assay for Antagonists of the Neuropeptide S Receptor: Radioligand Displacement, SAR for Probe
stated-conditions: CHO-hNPSR, [125I]Y10-NPS displacement, 1.5 h
Records with an inconclusive call do not appear. Calls of active or inactive are those of the source.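 How the source made its calls: active means compound that pushes labeled neuropeptide S off its receptor in a binding test; inconclusive means all other tested compounds; inactive means none, nothing was called inactive.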
Give measured Potency for each item. Keep answers brief.

compound	Potency
CCC(C)(CCN1CCOCC1)N(Cc1cc2ccccc2n(C)c1=O)C(=O)C1CCCCC1 (centres undefined)	6.54 nM (active)
COc1cccc(C2c3c(ncn(CCN4CCOCC4)c3=N)Oc3ccc4ccccc4c32)c1 (centres undefined)	439 nM (active)

Below are 2 compounds. Give each one its Potency.
1. CCOC(=O)C1CCCN(c2ncnc3c2oc2ccccc23)C1 (centres undefined)
2. N#CC1=C(NC=NCc2ccccc2)Oc2ccc3ccccc3c2C1c1ccccc1 (centres undefined)

Result ::
26400 nM (active)
322 nM (active)
